# experimental-system: T1, human GIP receptor (human, UniProt P48546 22-466)
# T1 sequence (looked up): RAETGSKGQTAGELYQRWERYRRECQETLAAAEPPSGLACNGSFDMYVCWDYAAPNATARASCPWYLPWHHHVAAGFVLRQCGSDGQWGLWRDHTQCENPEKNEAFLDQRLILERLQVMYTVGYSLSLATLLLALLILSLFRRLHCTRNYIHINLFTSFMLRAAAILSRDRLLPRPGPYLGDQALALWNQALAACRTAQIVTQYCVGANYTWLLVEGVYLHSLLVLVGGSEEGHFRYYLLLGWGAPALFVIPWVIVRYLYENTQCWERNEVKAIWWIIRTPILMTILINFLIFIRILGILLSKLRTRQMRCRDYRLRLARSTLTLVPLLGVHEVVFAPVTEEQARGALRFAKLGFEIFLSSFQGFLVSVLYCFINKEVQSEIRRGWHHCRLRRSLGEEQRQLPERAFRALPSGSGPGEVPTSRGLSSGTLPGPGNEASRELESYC
# assay-method-text: cell-based or functional assay
*1 amine or outer side, *2 acyl side, *3 side chain or, on linkers, in order; H or OH if unused. Where no end group is shown, it is not given here. Side-chain parts run from the residue outwards. [ ]: non-standard residue; d: D form. The star is where a group is joined. C18 diacid = O=C(O)CCCCCCCCCCCCCCCCC(=O)*; C16 diacid = O=C(O)CCCCCCCCCCCCCCC(=O)*; γGlu = O=C(O)[C@H](CCC(=O)[*:2])N[*:1]; pGlu = O=C1CC[C@@H](C(=O)O)N1; AEEA = NCCOCCOCC(=O)O
metric-name: DiscoveRx cAMP antagonism % inhib (%)
Lab book: enter the figure in %, no units written.

Previously resolved entries follow.
- binder: "[pGlu]GTFISDYSIAMDRIK([AEEA-AEEA-γGlu-C16 diacid])QQDFVNWLLAQR-NH2 [AT379]"
  quantitative-readout: 96
- binder: "[pGlu]GTFISDYSIAMDRIK(C16 diacid)QQDFVNWLLAQR-NH2 [AT390]"
  quantitative-readout: 100
- binder: "EGTFISDYSIAMDRIK([AEEA-γGlu-C18 diacid])QQDFVNWLLAQR-NH2 (not fully specified (residue 1)) [AT376]"
  quantitative-readout: 90

Here is another binder to look at.
Exercise: Return reported DiscoveRx cAMP antagonism % inhib; argument: EGTFISDYSIAMDRIK([AEEA-AEEA-AEEA-γGlu-C18 diacid])QQDFVNWLLAQR-NH2 (not fully specified (residue 1)) [AT378]
Key: 92
